- Test system: S. aureus DSM 20231
- ASSAY DETAILS: Bliss interaction score (quartile over a dose matrix) (fitness difference); higher = more antagonism (negative = synergy)
PARAMETER: Bliss interaction score
Simply state the number, no unit and no words.

Exercise: // Input: CO[C@@H]1[C@@H](OC(N)=O)[C@@H](O)[C@H](Oc2ccc3c(O)c(NC(=O)c4ccc(O)c(CC=C(C)C)c4)c(=O)oc3c2C)OC1(C)C [Novobiocin] + C[n+]1ccc(-c2cc[n+](C)cc2)cc1 [Paraquat] . Output its Bliss interaction score only.
Key: 0.0456

Exercise: // Input: CC(=O)NC[C@H]1CN(c2ccc(N3CCOCC3)c(F)c2)C(=O)O1 [Linezolid] + COc1c(N2C[C@@H]3CCCN[C@@H]3C2)c(F)cc2c(=O)c(C(=O)O)cn(C3CC3)c12 [Moxifloxacin] . Output its Bliss interaction score only.
Key: 0.0931

Exercise: // Input: CO[C@@]12[C@H](COC(N)=O)C3=C(C(=O)C(C)=C(N)C3=O)N1C[C@@H]1N[C@@H]12 [MitomycinC] + COc1ccc2[nH]c([S+]([O-])Cc3ncc(C)c(OC)c3C)nc2c1 [Omeprazole] . Output its Bliss interaction score only.
Key: 0.169

---

- Tested on: S. aureus Newman
- ASSAY DETAILS: Bliss interaction score (quartile over a dose matrix) (fitness difference); higher = more antagonism (negative = synergy)
Provide the recorded Bliss interaction score for the entries that follow.
Simply state the number, no unit and no words.

Exercise: Fill in Bliss interaction score for CO[C@@]12[C@H](COC(N)=O)C3=C(C(=O)C(C)=C(N)C3=O)N1C[C@@H]1N[C@@H]12 [MitomycinC] + COc1c(N2C[C@@H]3CCCN[C@@H]3C2)c(F)cc2c(=O)c(C(=O)O)cn(C3CC3)c12 [Moxifloxacin] tested with S. aureus Newman.
Key: -0.099

Exercise: Fill in Bliss interaction score for CC(=O)NC[C@H]1CN(c2ccc(N3CCOCC3)c(F)c2)C(=O)O1 [Linezolid] + CO[C@H]1/C=C/O[C@@]2(C)Oc3c(C)c(O)c4c(O)c(c(/C=N/N5CCN(C)CC5)c(O)c4c3C2=O)NC(=O)/C(C)=C\C=C\[C@H](C)[C@H](O)[C@@H](C)[C@@H](O)[C@@H](C)[C@H](OC(C)=O)[C@@H]1C [Rifampicin] tested with S. aureus Newman.
Key: -0.0225

Exercise: Fill in Bliss interaction score for CO[C@H]1/C=C/O[C@@]2(C)Oc3c(C)c(O)c4c(O)c(c(/C=N/N5CCN(C)CC5)c(O)c4c3C2=O)NC(=O)/C(C)=C\C=C\[C@H](C)[C@H](O)[C@@H](C)[C@@H](O)[C@@H](C)[C@H](OC(C)=O)[C@@H]1C [Rifampicin] + CN[C@@H]1[C@H](O[C@H]2[C@H](O[C@H]3[C@H](O)[C@@H](O)[C@H](N=C(N)N)[C@@H](O)[C@@H]3N=C(N)N)O[C@@H](C)[C@]2(O)C=O)O[C@@H](CO)[C@H](O)[C@H]1O [Streptomycin] tested with S. aureus Newman.
Key: -0.0179

Exercise: Fill in Bliss interaction score for CO[C@@H]1[C@@H](OC(N)=O)[C@@H](O)[C@H](Oc2ccc3c(O)c(NC(=O)c4ccc(O)c(CC=C(C)C)c4)c(=O)oc3c2C)OC1(C)C [Novobiocin] + CN(N=O)C(=O)N[C@@H](C=O)[C@@H](O)[C@H](O)[C@H](O)CO [Streptozotocin] tested with S. aureus Newman.
Key: 0.0508

---

- Tested on: S. aureus Newman
- ASSAY DETAILS: Bliss interaction score (quartile over a dose matrix) (fitness difference); higher = more antagonism (negative = synergy)
PARAMETER: Bliss interaction score
Simply state the number, no unit and no words.

Exercise: // Input: CC(=O)NC[C@H]1CN(c2ccc(N3CCOCC3)c(F)c2)C(=O)O1 [Linezolid] + CN(N=O)C(=O)N[C@@H](C=O)[C@@H](O)[C@H](O)[C@H](O)CO [Streptozotocin] . Output its Bliss interaction score only.
Key: -0.0367

Exercise: // Input: CC(=O)NC[C@H]1CN(c2ccc(N3CCOCC3)c(F)c2)C(=O)O1 [Linezolid] + COc1c(N2C[C@@H]3CCCN[C@@H]3C2)c(F)cc2c(=O)c(C(=O)O)cn(C3CC3)c12 [Moxifloxacin] . Output its Bliss interaction score only.
Key: 0.074

Exercise: // Input: CO[C@@]12[C@H](COC(N)=O)C3=C(C(=O)C(C)=C(N)C3=O)N1C[C@@H]1N[C@@H]12 [MitomycinC] + Cc1cc(NS(=O)(=O)c2ccc(N)cc2)no1 [Sulfamethoxazol] . Output its Bliss interaction score only.
Key: 0.0863

---

- Test system: S. aureus Newman
- ASSAY DETAILS: fitness (endpoint OD595 vs no drug) (fraction); higher = more growth
- EXPERIMENTAL CONDITIONS: first compound 18.75 µg/mL; partner 2.5 µg/mL; main component drawn
Provide the recorded fitness for the entries that follow.
Simply state the number, no unit and no words.

Exercise: // Input: CC[C@H](C)[C@H](N)C1=N[C@H](C(=O)N[C@@H](CC(C)C)C(=O)N[C@H](CCC(=O)O)C(=O)N[C@H](C(=O)N[C@H]2CCCCNC(=O)[C@H](CC(N)=O)NC(=O)[C@@H](CC(=O)O)NC(=O)[C@H](Cc3cnc[nH]3)NC(=O)[C@@H](Cc3ccccc3)NC(=O)[C@H]([C@@H](C)CC)NC(=O)[C@@H](CCCN)NC2=O)[C@@H](C)CC)CS1 [Bacitracin] + COc1cccc2c1C(=O)c1c(O)c3c(c(O)c1C2=O)C[C@@](O)(C(=O)CO)C[C@@H]3O[C@H]1C[C@H](N)[C@H](O)[C@H](C)O1 [Doxorubicin] . Output its fitness only.
Key: 0.513

Exercise: // Input: CC[C@H](C)[C@H](N)C1=N[C@H](C(=O)N[C@@H](CC(C)C)C(=O)N[C@H](CCC(=O)O)C(=O)N[C@H](C(=O)N[C@H]2CCCCNC(=O)[C@H](CC(N)=O)NC(=O)[C@@H](CC(=O)O)NC(=O)[C@H](Cc3cnc[nH]3)NC(=O)[C@@H](Cc3ccccc3)NC(=O)[C@H]([C@@H](C)CC)NC(=O)[C@@H](CCCN)NC2=O)[C@@H](C)CC)CS1 [Bacitracin] + CO/N=C(\C(=O)N[C@@H]1C(=O)N2C(C(=O)O)=C(COC(C)=O)CS[C@H]12)c1csc(N)n1 [Cefotaxime] . Output its fitness only.
Key: 0.0285

Exercise: // Input: CC[C@H](C)[C@H](N)C1=N[C@H](C(=O)N[C@@H](CC(C)C)C(=O)N[C@H](CCC(=O)O)C(=O)N[C@H](C(=O)N[C@H]2CCCCNC(=O)[C@H](CC(N)=O)NC(=O)[C@@H](CC(=O)O)NC(=O)[C@H](Cc3cnc[nH]3)NC(=O)[C@@H](Cc3ccccc3)NC(=O)[C@H]([C@@H](C)CC)NC(=O)[C@@H](CCCN)NC2=O)[C@@H](C)CC)CS1 [Bacitracin] + CN1C2=CC=CC=C2N=C3C1=CC=CC3=O [Pyocyanin] . Output its fitness only.
Key: 0.496

Exercise: // Input: CC[C@H](C)[C@H](N)C1=N[C@H](C(=O)N[C@@H](CC(C)C)C(=O)N[C@H](CCC(=O)O)C(=O)N[C@H](C(=O)N[C@H]2CCCCNC(=O)[C@H](CC(N)=O)NC(=O)[C@@H](CC(=O)O)NC(=O)[C@H](Cc3cnc[nH]3)NC(=O)[C@@H](Cc3ccccc3)NC(=O)[C@H]([C@@H](C)CC)NC(=O)[C@@H](CCCN)NC2=O)[C@@H](C)CC)CS1 [Bacitracin] + Cc1ncc([N+](=O)[O-])n1CCO [Metronidazole] . Output its fitness only.
Key: 0.743

Exercise: // Input: CC[C@H](C)[C@H](N)C1=N[C@H](C(=O)N[C@@H](CC(C)C)C(=O)N[C@H](CCC(=O)O)C(=O)N[C@H](C(=O)N[C@H]2CCCCNC(=O)[C@H](CC(N)=O)NC(=O)[C@@H](CC(=O)O)NC(=O)[C@H](Cc3cnc[nH]3)NC(=O)[C@@H](Cc3ccccc3)NC(=O)[C@H]([C@@H](C)CC)NC(=O)[C@@H](CCCN)NC2=O)[C@@H](C)CC)CS1 [Bacitracin] + C[n+]1ccc(-c2cc[n+](C)cc2)cc1 [Paraquat] . Output its fitness only.
Key: 0.725

---

- Tested on: S. aureus DSM 20231
- ASSAY DETAILS: Bliss interaction score (quartile over a dose matrix) (fitness difference); higher = more antagonism (negative = synergy)
PARAMETER: Bliss interaction score
Simply state the number, no unit and no words.

Exercise: Fill in Bliss interaction score for CC(=O)NC[C@H]1CN(c2ccc(N3CCOCC3)c(F)c2)C(=O)O1 [Linezolid] + Cc1ncc([N+](=O)[O-])n1CCO [Metronidazole] tested with S. aureus DSM 20231.
Key: 0.111

Exercise: Fill in Bliss interaction score for CO[C@@]12[C@H](COC(N)=O)C3=C(C(=O)C(C)=C(N)C3=O)N1C[C@@H]1N[C@@H]12 [MitomycinC] + C/C(=C\C(=O)OCCCCCCCCC(=O)O)C[C@@H]1OC[C@H](C[C@@H]2O[C@H]2[C@@H](C)[C@H](C)O)[C@@H](O)[C@H]1O [Pseudomonic acid] tested with S. aureus DSM 20231.
Key: -0.011

Exercise: Fill in Bliss interaction score for CC(=O)NC[C@H]1CN(c2ccc(N3CCOCC3)c(F)c2)C(=O)O1 [Linezolid] + CO[C@@]12[C@H](COC(N)=O)C3=C(C(=O)C(C)=C(N)C3=O)N1C[C@@H]1N[C@@H]12 [MitomycinC] tested with S. aureus DSM 20231.
Key: -0.068
